Test system: Mycobacterium tuberculosis
Method description: Antimycobacterial activity against Mycobacterium bovis BCG under dormancy-inducing hypoxic condition
Type: functional
Condition summary: variant bovis BCG
*1 amine or outer side, *2 acyl side, *3 side chain or, on linkers, in order; H or OH if unused. Where a SMILES comes first, the peptide text is derived from it. [ ]: non-standard residue; d: D form. The star is where a group is joined. X2 = CCC(=O)C[C@@H](O)C[C@@H](C)C[C@H](N[*:1])C(=O)[*:2]; X1 = CCC(=O)/C=C/C[C@@H](C)C[C@H](N[*:1])C(=O)[*:2]; Alaψ(CH2NMeCH2CH2OH) = C[C@@H](CN(C)CCO)N*; Decanoyl(2R-Me) = CCCCCCCC[C@@H](C)C(=O)*; Aib = CC(C)(N)C(=O)O
I'd appreciate it if you could supply MIC values for the items below.

Request: Would you mind telling me what MIC value was observed for CCCCCCCC[C@@H](C)C(=O)N1CCC[C@H]1C(=O)N[C@@H](C[C@H](C)C[C@H](O)CC(=O)CC)C(=O)NC(C)(C)C(=O)NC(C)(C)C(=O)N[C@H](C(=O)N[C@H](C(=O)NC(C)(C)C(=O)NC(C)(C)C(=O)N[C@@H](C)CN(C)CCO)C(C)C)C(C)C [TRICHODERIN B] ({Decanoyl(2R-Me)}-P[X2][Aib][Aib]VV[Aib][Aib]-{Alaψ(CH2NMeCH2CH2OH)}) ?
Response: 0.02 µg/mL

Request: So what's the measured MIC for this one? CCCCCCCC[C@@H](C)C(=O)N1CCC[C@H]1C(=O)N[C@@H](C[C@H](C)C[C@H](O)CC(=O)CC)C(=O)NC(C)(C)C(=O)NC(C)(C)C(=O)N[C@H](C(=O)N[C@H](C(=O)NC(C)(C)C(=O)NC(C)(C)C(=O)N[C@@H](C)CN(C)CCO)C(C)C)[C@@H](C)CC [TRICHODERIN A] ({Decanoyl(2R-Me)}-P[X2][Aib][Aib]IV[Aib][Aib]-{Alaψ(CH2NMeCH2CH2OH)})
Response: 0.02 µg/mL

Request: Bench note: what MIC did CCCCCCCC[C@@H](C)C(=O)N1CCC[C@H]1C(=O)N[C@@H](C[C@H](C)C/C=C/C(=O)CC)C(=O)NC(C)(C)C(=O)NC(C)(C)C(=O)N[C@H](C(=O)N[C@H](C(=O)NC(C)(C)C(=O)NC(C)(C)C(=O)N[C@@H](C)CN(C)CCO)C(C)C)[C@@H](C)CC [TRICHODERIN A1] ({Decanoyl(2R-Me)}-P[X1][Aib][Aib]IV[Aib][Aib]-{Alaψ(CH2NMeCH2CH2OH)}) show?
Response: 0.16 µg/mL

Request: For the compound shown here, NNC(=O)c1ccncc1 , give the reported MIC.
Response: > 100 µg/mL

Values from ChEMBL document CHEMBL1158611
